Biological target: T1, human CD33 (human, UniProt P20138 18-259, limits assumed)
T1 construct: Human CD33 immobilized on the BLI sensor tip or the BIAcore C1 chip; also called Siglec-3
T1 sequence (P20138 18-259 limits assumed): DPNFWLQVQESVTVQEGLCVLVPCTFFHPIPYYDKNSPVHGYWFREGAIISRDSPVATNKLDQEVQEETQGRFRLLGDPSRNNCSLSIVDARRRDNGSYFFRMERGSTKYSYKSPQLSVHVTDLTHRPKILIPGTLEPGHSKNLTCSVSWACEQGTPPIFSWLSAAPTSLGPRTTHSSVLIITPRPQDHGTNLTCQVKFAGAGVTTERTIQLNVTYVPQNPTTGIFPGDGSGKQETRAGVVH
Assay: BLI (ForteBio), Fab 100 nM on immobilized CD33
measurementName: Kd (nM)
Numbers only, in nM.

As a guide, the following entries are already answered.
# binder, Kd [nM]
records = [
    ("AB-14.7 (antibody, V domains shown) VH: QVQLVQSGAEVKKPGASVKVSCKASGYTFTDYNYHWVRQAPGQGLEWIGFIYPSNGITGYAQKFQGRVTMTVDTSTSTVYMELSSLRSEDTAVYYCARSDVDYFDYWGQGTLVTVSS VL: DIQMTQSPSSLSASVGDRVTITCRASQSVGTSTYSYMHWYQQKPGKAPKLLIKYASNLESGVPSRFSGSGSGTDFTLTISSLQPEDFATYYCQHSWEIPLTFGQGTKLEIK", 0.246),
    ("AB-14.5 (antibody, V domains shown) VH: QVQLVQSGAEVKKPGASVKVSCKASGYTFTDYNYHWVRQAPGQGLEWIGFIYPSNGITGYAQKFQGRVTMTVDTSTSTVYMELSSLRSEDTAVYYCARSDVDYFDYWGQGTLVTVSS VL: DIQMTQSPSSLSASVGDRVTITCRASQDVSTSTYSYMHWYQRKPGKAPKLLIKYASNLESGVPSRFSGSGSGTDFTLTISSLQPEDFATYYCQHSWEIPLTFGQGTKLEIK", 0.212),
]

Kd reading for AB-63.7 (antibody, V domains shown) VH: QVQLVQSGAEVKKPGASVKVSCKASGYTFTDYNLHWVRQAPGQGLEWIGFIYPSNGITGYAQKFQGRVTMTVDTSTSTVYMELSSLRSEDTAVYYCARSTVDYFDYWGQGTLVTVSS VL: DIVLTQSPDSLAVSLGERATINCRASQDVSTSTYSYMHWYQQKPGQPPKLLIKYAFNLESGVPDRFSGSGSGTDFTLTISSLQAEDVAVYYCQHSWEIPLEFGQGTKLEIK : 0.917
